# credit: the supplement of paper PMC6607015

tested on: A431; experiment: LBPA endosome anti-LBPA integrated intensity (sum per cell), Z-score; higher = more LBPA staining; conditions: compound concentration in added solution (µM; 5 µl added to 20 µl cells): 10; 18 h
Where a name gives a salt, the structure may show the parent alone.
observation-type: LBPA endosome anti-LBPA integrated intensity (z-score)

[
  {
    "compound": "CCOCCn1c(N2CCCN(C)CC2)nc2ccccc21 [Emedastine]",
    "observed-value": -0.464
  },
  {
    "compound": "C=CCN1CCCC1CNC(=O)c1cc2nn[nH]c2cc1OC (centres undefined) [Alizapride HCl]",
    "observed-value": -0.413
  },
  {
    "compound": "Nc1cc(C(Cl)=C(Cl)Cl)c(S(N)(=O)=O)cc1S(N)(=O)=O [Clorsulon]",
    "observed-value": -0.372
  },
  {
    "compound": "CC(=O)OCC(=O)[C@@]1(OC(C)=O)[C@@H](C)C[C@H]2[C@@H]3C[C@H](F)C4=CC(=O)C=C[C@]4(C)[C@@]3(F)[C@@H](O)C[C@@]21C [Diflorasone Diacetate]",
    "observed-value": -0.283
  },
  {
    "compound": "C=CCOC(Cn1ccnc1)c1ccc(Cl)cc1Cl (centres undefined) [Enilconazole]",
    "observed-value": -0.206
  },
  {
    "compound": "NC(=O)NC1NC(=O)NC1=O (centres undefined) [Allantoin]",
    "observed-value": -0.71
  },
  {
    "compound": "NCCCC(O)(P(=O)(O)O)P(=O)(O)O [Alendronate sodium]",
    "observed-value": -0.662
  },
  {
    "compound": "CCC1(c2ccccc2)NC(=O)N(C)C1=O (centres undefined) [Mephenytoin]",
    "observed-value": -0.412
  },
  {
    "compound": "CN1CC2c3ccccc3Oc3ccc(Cl)cc3C2C1 (centres undefined) [Asenapine maleate]",
    "observed-value": 2.13
  }
]
